target: c-MET (Homo sapiens)
pKi: −log10 of the molar value.
# pKi values compiled below

Example results:
| COMPOUND | STUDY SYSTEM | pKi |
| --- | --- | --- |
| Nc1ncc(-c2ccc(F)cc2)cc1-c1nnnn1-c1cccc(F)c1F [I-A-223] | c-MET (Homo sapiens) | ≥ 7.00 |
| CN(C)Cc1ccc(-c2cnc(N)c(-c3nc4cc(F)ccc4n3-c3cccc(Cl)c3F)c2)cc1 [I-D-22] | c-MET (Homo sapiens) | 6.00 to 7.00 |
| CC(N)c1ccc(-c2cnc(N)c(-c3nnnn3-c3cccc(F)c3F)c2)cn1 (stereo not drawn) [I-A-129] | c-MET (Homo sapiens) | ≥ 7.00 |
| CC(=O)Nc1cccc(-c2cnc(N)c(-c3nnnn3-c3cc(F)ccc3Cl)c2)c1 [I-A-569] | c-MET (Homo sapiens) | 6.00 to 7.00 |
| CC(=O)Nc1cc(-c2cnc(N)c(-c3nnnn3-c3cccc(Cl)c3F)c2)ccc1CN1CCCC1 [I-A-398] | c-MET (Homo sapiens) | ≥ 7.00 |
| Nc1ncc(-c2ccc(OCCO)cc2)cc1-c1nnnn1-c1cccc(F)c1F [I-A-283] | c-MET (Homo sapiens) | ≥ 7.00 |
| COCCOC(=O)N1CCC(n2cc(-c3cnc(N)c(-c4nnnn4-c4cccc(Cl)c4F)c3)cn2)CC1 [I-A-440] | c-MET (Homo sapiens) | ≥ 7.00 |
| Nc1ncc(-c2cnn(C3CCNCC3)c2)nc1-c1nnnn1-c1cccc(F)c1F [I-A-468] | c-MET (Homo sapiens) | ≥ 7.00 |

# return recorded pKi for input Nc1ncc(-c2nc3c(s2)CNCC3)cc1-c1nnnn1-c1cccc(Cl)c1Cl [I-A-467]
6.00 to 7.00

# return recorded pKi for input CCCN1CCC(n2cc(-c3cnc(N)c(-c4nnnn4-c4cccc(F)c4F)c3)nn2)CC1 [I-A-482]
≥ 7.00

* * *

# pKi values compiled below
molecular target: c-MET (Homo sapiens, UniProt P08581)
Sequence (P08581 25-1390): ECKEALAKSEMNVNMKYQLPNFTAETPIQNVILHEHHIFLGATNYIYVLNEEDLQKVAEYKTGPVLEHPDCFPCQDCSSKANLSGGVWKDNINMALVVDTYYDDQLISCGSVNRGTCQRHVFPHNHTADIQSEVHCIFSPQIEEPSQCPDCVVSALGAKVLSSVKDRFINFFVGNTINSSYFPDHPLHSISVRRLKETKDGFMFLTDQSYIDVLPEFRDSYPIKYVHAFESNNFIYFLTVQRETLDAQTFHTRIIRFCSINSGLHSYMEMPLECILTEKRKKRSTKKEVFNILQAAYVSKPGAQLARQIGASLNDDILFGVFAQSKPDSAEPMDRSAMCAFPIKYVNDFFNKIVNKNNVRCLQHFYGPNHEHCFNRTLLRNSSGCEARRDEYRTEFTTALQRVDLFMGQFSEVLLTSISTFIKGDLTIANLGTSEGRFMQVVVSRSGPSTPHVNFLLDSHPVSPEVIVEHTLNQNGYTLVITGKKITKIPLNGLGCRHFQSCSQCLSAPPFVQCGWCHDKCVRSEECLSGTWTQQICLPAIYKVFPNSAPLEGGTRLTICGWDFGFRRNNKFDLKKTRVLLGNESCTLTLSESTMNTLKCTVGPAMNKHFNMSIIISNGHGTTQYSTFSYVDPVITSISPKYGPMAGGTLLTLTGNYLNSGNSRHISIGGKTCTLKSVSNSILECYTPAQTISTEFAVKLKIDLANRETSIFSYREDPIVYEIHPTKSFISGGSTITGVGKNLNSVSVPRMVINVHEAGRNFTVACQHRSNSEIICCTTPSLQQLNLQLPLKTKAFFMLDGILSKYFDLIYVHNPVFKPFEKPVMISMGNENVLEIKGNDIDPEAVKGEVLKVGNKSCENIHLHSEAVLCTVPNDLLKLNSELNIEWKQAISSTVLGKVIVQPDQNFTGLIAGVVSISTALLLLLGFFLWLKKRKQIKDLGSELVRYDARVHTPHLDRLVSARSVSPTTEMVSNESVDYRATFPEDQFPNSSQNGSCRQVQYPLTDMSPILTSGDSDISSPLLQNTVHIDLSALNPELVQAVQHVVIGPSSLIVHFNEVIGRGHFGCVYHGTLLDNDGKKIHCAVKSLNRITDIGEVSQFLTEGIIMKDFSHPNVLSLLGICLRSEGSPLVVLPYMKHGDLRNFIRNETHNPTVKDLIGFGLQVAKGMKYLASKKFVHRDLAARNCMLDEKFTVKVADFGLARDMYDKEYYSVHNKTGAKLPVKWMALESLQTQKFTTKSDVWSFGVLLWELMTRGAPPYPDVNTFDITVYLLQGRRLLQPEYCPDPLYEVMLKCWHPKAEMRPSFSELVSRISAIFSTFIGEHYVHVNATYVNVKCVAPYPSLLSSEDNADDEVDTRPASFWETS
pKi: −log10 of the molar value.

Example results:
| SMI | METRIC | REPORTED VALUE |
| --- | --- | --- |
| CN1CCN(Cc2ccc(-c3cnc(N)c(-c4nc5cnccc5n4-c4cccc(F)c4F)c3)cc2)CC1 | pKi | ≥ 7.00 |
| Nc1ncc(C2=CCN(C(=O)c3ccncc3)CC2)cc1-c1nnnn1-c1cccc(F)c1F | pKi | ≥ 7.00 |
| CC(C)(C)OC(=O)N1CC=C(c2cnc(N)c(-c3nnnn3-c3cccc(F)c3F)c2)CC1 | pKi | ≥ 7.00 |
| Cc1nnc(-c2cc(-c3cnn(C4CCNCC4)c3)cnc2N)n1-c1cccc(Cl)c1F | pKi | 6.00 to 7.00 |
| CC(C)CC(=O)N1CC=C(c2cnc(N)c(-c3nnnn3-c3cccc(F)c3F)c2)CC1 | pKi | ≥ 7.00 |
| CC(=O)c1ccc(-c2cnc(N)c(-c3nnnn3-c3cccc(F)c3F)c2)cc1 | pKi | ≥ 7.00 |
| Nc1ncc(-c2cccc(F)c2F)cc1-c1nnnn1-c1cccc(F)c1F | pKi | 6.00 to 7.00 |

We next turn to a different compound, shown below.
Retrieve pKi on c-MET (Homo sapiens, UniProt P08581); query Nc1ncc(-c2ccc3c(c2)CCNC3)cc1-c1nnnn1-c1cccc(F)c1F
6.00 to 7.00

* * *

Parameter Ki, tested on c-MET (Homo sapiens), listed per item.

Example results:
| COMPOUND | METRIC | REPORTED VALUE |
| --- | --- | --- |
| CN(CCc1ccccn1)Cc1ccc(-c2cnc(N)c(-c3nnnn3-c3cccc(Cl)c3Cl)c2)cc1 | Ki | 100 to 1000 nM |
| Nc1ncc(-c2cnn([C@H]3CCCNC3)c2)cc1-c1nnnn1-c1cccc(F)c1F | Ki | ≤ 100 nM |
| Nc1ncc(-c2cnn(C3CCN(CC(F)F)CC3)c2)cc1-c1nnnn1-c1cccc(F)c1F | Ki | ≤ 100 nM |
| Nc1ncc(-c2ccc(CO)cc2)cc1-c1nnnn1-c1cccc(F)c1F | Ki | ≤ 100 nM |
| Nc1ncc(-c2ccc(CN3CCC[C@H]3CO)cc2)cc1-c1nnnn1-c1cccc(Cl)c1Cl | Ki | ≤ 100 nM |

# return recorded Ki for input Nc1ncc(-c2cnn(C3CCCNCC3)c2)nc1-c1nnnn1-c1cccc(F)c1F (centres unmarked)
≤ 100 nM

# return recorded Ki for input COc1c(F)cccc1-n1nnnc1-c1cc(-c2cccc(NC(C)=O)c2)cnc1N
100 to 1000 nM

# return recorded Ki for input CN(C)CCCN(C)S(=O)(=O)c1ccc(-c2cnc(N)c(-c3nnnn3-c3cccc(F)c3F)c2)cc1
≤ 100 nM

# return recorded Ki for input Cc1c(Cl)cccc1-n1nnnc1-c1cc(-c2ccc(CN(C)C)cc2)cnc1N
100 to 1000 nM

# return recorded Ki for input Nc1ncc(-c2cnn(C3CCNCC3)c2)cc1-c1nnnn1-c1cc(F)cc(F)c1Cl
100 to 1000 nM

# return recorded Ki for input Nc1ncc(-c2ccc(CN3CCCC3)cc2)cc1-c1nc2cnccc2n1-c1cccc(F)c1F
≤ 100 nM

# return recorded Ki for input Nc1ncc(-c2cnn(C3CCNCC3)c2)cc1-c1nccn1-c1cccc(Cl)c1Cl
≤ 100 nM

* * *

pKi: −log10 of the molar value.
Parameter pKi, tested on c-MET (Homo sapiens, UniProt P08581), listed per item.

Retrieve pKi on c-MET (Homo sapiens, UniProt P08581); query N#Cc1ccc(-c2cnc(N)c(-c3nnnn3-c3cccc(F)c3F)c2)cc1
6.00 to 7.00

Retrieve pKi on c-MET (Homo sapiens, UniProt P08581); query CCNC(=O)Nc1nc2cc(F)c(-c3cnc(N)c(-c4nncn4-c4cccc(F)c4F)n3)cc2[nH]1
≥ 7.00

Retrieve pKi on c-MET (Homo sapiens, UniProt P08581); query Nc1ncc(C2=CCN(CC3CCOC3)CC2)cc1-c1nnnn1-c1cccc(F)c1F (centres unmarked)
6.00 to 7.00

Retrieve pKi on c-MET (Homo sapiens, UniProt P08581); query Nc1ncc(-c2cn[nH]c2)cc1-c1nnnn1-c1cccc(F)c1F
≥ 7.00

Retrieve pKi on c-MET (Homo sapiens, UniProt P08581); query Nc1ncc(-c2cnn([C@H]3CCCNC3)c2)nc1-c1nnnn1-c1cccc(Cl)c1F
≥ 7.00

Retrieve pKi on c-MET (Homo sapiens, UniProt P08581); query Nc1ncc(-c2cccnc2)cc1-c1nnnn1-c1cccc(Cl)c1F
6.00 to 7.00

Retrieve pKi on c-MET (Homo sapiens, UniProt P08581); query Nc1ncc(C2=CCN(C(=O)C3CCOCC3)CC2)cc1-c1nnnn1-c1cccc(F)c1F
≥ 7.00

Retrieve pKi on c-MET (Homo sapiens, UniProt P08581); query C[C@@H]1CC[C@@H](C)N1Cc1ccc(-c2cnc(N)c(-c3nnnn3-c3cccc(F)c3F)c2)cc1
≥ 7.00

* * *

Parameter pKi, tested on c-MET (Homo sapiens, UniProt P08581), listed per item.
pKi: −log10 of the molar value.

Example results:
| COMPOUND | STUDY SYSTEM | pKi |
| --- | --- | --- |
| NC(=O)[C@@H]1CCCN1Cc1ccc(-c2cnc(N)c(-c3nnnn3-c3cccc(F)c3F)c2)cc1 [I-A-132] | c-MET (Homo sapiens, UniProt P08581) | ≥ 7.00 |
| Nc1ncc(-c2ccc(CN3CCCC3)cc2)cc1-c1nnnn1-c1c(F)cccc1Cl [I-A-616] | c-MET (Homo sapiens, UniProt P08581) | ≥ 7.00 |

Retrieve pKi on c-MET (Homo sapiens, UniProt P08581); query Cn1cc(-c2cccc(Cl)c2Cl)c(-c2cc(-c3cccnc3)cnc2N)n1 [I-B-16]
6.00 to 7.00

Retrieve pKi on c-MET (Homo sapiens, UniProt P08581); query Cc1nnc(-c2cc(-c3cnn(C4CCNCC4)c3)cnc2N)n1-c1cccc(F)c1Cl [I-A-390]
6.00 to 7.00

* * *

molecular target: c-MET (Homo sapiens, UniProt P08581)
pKi: −log10 of the molar value.
# pKi values compiled below

Example results:
| SMI | REPORTED VALUE |
| --- | --- |
| CN(C)Cc1ccc(-c2cnc(N)c(-c3nnnn3-c3c(F)ccc(F)c3Cl)c2)cc1 | ≥ 7.00 |
| Nc1ncc(-c2cccc(N3CCNCC3)c2)cc1-c1nccn1-c1cccc(Cl)c1Cl | ≥ 7.00 |
| CN(C(=O)Nc1cccc(-c2cnc(N)c(-c3nnnn3-c3cccc(F)c3F)c2)c1)c1ccccc1 | 6.00 to 7.00 |

# return recorded pKi for input Nc1ncc(-c2ccn(CCN3CCCC3)c2)cc1-c1nnnn1-c1cccc(F)c1F
≥ 7.00

# return recorded pKi for input CN(C)CCNC(=O)c1ccc(-c2cnc(N)c(-c3nnnn3-c3cccc(F)c3F)c2)cc1
≥ 7.00

# return recorded pKi for input Nc1ncc(-c2ccc(CN3CCCC3)cc2)cc1-c1nnnn1-c1cccc(F)c1Cl
6.00 to 7.00

# return recorded pKi for input Nc1ncc(-c2cccnc2)cc1-c1nccn1-c1cccc(Cl)c1Cl
≥ 7.00

# return recorded pKi for input Nc1ncc(-c2ccc(CN3CCCC3)cc2)cc1-c1nnnn1-c1cc(F)ccc1Cl
6.00 to 7.00
